Test Target: T1, activated human complement C1s (human, UniProt P09871 16-688)
T1 construct: also called aC1s; active C1s
T1 sequence: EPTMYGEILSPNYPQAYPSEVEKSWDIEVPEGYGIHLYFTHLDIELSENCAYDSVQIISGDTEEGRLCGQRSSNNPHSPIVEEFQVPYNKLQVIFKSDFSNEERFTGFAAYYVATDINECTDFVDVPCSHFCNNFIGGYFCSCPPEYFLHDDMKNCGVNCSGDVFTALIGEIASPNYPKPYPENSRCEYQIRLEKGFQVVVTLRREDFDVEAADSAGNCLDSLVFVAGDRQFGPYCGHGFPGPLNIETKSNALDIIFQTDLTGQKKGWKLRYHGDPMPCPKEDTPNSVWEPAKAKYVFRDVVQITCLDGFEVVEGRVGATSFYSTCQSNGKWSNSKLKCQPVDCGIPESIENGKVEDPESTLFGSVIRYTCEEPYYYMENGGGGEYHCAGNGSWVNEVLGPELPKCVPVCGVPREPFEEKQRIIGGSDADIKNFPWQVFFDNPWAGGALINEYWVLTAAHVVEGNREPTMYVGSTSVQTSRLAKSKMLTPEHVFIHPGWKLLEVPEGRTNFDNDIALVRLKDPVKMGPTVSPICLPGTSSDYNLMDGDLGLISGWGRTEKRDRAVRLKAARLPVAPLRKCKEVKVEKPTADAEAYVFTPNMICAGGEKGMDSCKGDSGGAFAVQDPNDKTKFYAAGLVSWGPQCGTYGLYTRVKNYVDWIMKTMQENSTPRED
Assay Explanation: kinetic characterization of binding to active human C1s; instrument not stated; column head kdis
Measured Property: koff (s⁻¹)

>>> numeric_readout("humanized TNT005 variant VH variant 2+Vk variant 1 (antibody, V domains shown, also called VH variant 2 + VL variant 1) VH: EVQLVQSGAEVKKPGASVKLSCTASGFNIKDDYIHWVKQAPGQGLEWIGRIDPADGHTKYAPKFQVKATITADTSTNTAYLELSSLRSEDTAVYYCARYGYGREVFDYWGQGTTVTVSS VL: DIVLTQSPDSLAVSLGERATISCKASQSVDYDGDSYMNWYQQKTGQPPKILIYDASNLESGIPARFSGSGSGTDFTLTISSLEEEDFAIYYCQQSNEDPWTFGGGTKVEIK")
0.000208
>>> numeric_readout("humanized TNT005 variant VH variant 5+Vk variant 1 (antibody, V domains shown, also called VH variant 5 + VL variant 1) VH: QVQLVQSGAEVKKPGASVKVSCAASGFNIKDDYIHWVRQAPGQGLEWIGRIDPADGHTKYAPKFQVKVTITADTSTSTAYMELSSLRSEDTAVYYCARYGYGREVFDYWGQGTTVTVSS VL: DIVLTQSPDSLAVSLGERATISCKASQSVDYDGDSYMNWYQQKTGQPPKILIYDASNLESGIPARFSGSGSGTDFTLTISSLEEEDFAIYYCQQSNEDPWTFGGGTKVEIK")
0.000471
>>> numeric_readout("humanized TNT005 variant VH variant 2+Vk variant 5 (antibody, V domains shown, also called VH variant 2 + VL variant 5) VH: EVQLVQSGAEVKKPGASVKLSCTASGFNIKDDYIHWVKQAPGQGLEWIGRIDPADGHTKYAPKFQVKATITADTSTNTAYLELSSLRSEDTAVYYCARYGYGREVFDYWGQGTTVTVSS VL: DIVLTQSPDSLAVSLGERATISCKASQSVDYDGDSYMNWYQQKPGQPPKLLIYDASNLESGIPARFSGSGSGTDFTLTISSLEPEDFAVYYCQQSNEDPWTFGGGTKVEIK")
0.000166
